measuredTarget: CD28 (human) (UniProt P10747)
protocolText: flow cytometry, Jurkat cells (CD28)
measureName: Fold change to WT (fold)

// worked examples, Fold change to WT included
binder	Fold change to WT (fold)
CD80 variant H18Y/E35D/V68M/L97Q IgV-Fc (Fc fusion) VIHVTKEVKEVATLSCGYNVSVEELAQTRIYWQKDKKMVLTMMSGDMNIWPEYKNRTIFDITNNLSIMILALRPSDEGTYECVVLKYEKDAFKREHQAEVT	0.04
CD80 variant Q33K/E35D/D46V/L85Q IgV-Fc (Fc fusion) VIHVTKEVKEVATLSCGHNVSVEELAQTRIYWKKDKKMVLTMMSGVMNIWPEYKNRTIFDITNNLSIVILALRPSDEGTYECVVQKYEKDAFKREHLAEVT	0.03

a. CD80 variant Q33L/E35D/M43I/L85Q/R94W IgV-Fc (Fc fusion) VIHVTKEVKEVATLSCGHNVSVEELAQTRIYWLKDKKMVLTMISGDMNIWPEYKNRTIFDITNNLSIVILALRPSDEGTYECVVQKYEKDAFKWEHLAEVT
b. CD80 variant E35D/M47L/L85Q IgV-Fc (Fc fusion) VIHVTKEVKEVATLSCGHNVSVEELAQTRIYWQKDKKMVLTMMSGDLNIWPEYKNRTIFDITNNLSIVILALRPSDEGTYECVVQKYEKDAFKREHLAEVT
Of a and b , which carries the smaller reported Fold change to WT figure? Label of pick, please.
a
(a: 0.04 fold, b: 0.08 fold)
